Assay: Parallel Artificial Membrane Permeability Assay (PAMPA)
Format: in vitro ADME
Conditions: pH 7.4, 5 h
Measurement Kind: Percentage in parentheses beside AppP (membrane retention) (%)

# annotated cases, reported Percentage in parentheses beside AppP (membrane retention) shown
- Compound: "COc1ccc(-c2nnc(NC(=O)c3ccccc3C(=O)O)s2)cc1 [Compound 23]"
  Value Measured: 0
- Compound: "O=C(O)c1ccccc1C(=O)Nc1nnc(-c2ccc(O)cc2)s1 [Compound 24]"
  Value Measured: 0

(1) CCCCOC(=O)c1ccccc1C(=O)Nc1nnc(-c2ccc(OC)cc2)s1 [Compound 31]
(2) CCOC(=O)c1ccccc1C(=O)Nc1nnc(-c2ccc(OC)cc2)s1 [Compound 30]
Problem: Input pair: 1 , 2 . Output: entry with lower Percentage in parentheses beside AppP (membrane retention). Let me know the label of the one you choose.
Solution: 2
(2: 4.6%, 1: 25.9%)
